Taken from the supplement of paper PMC10127200.

Tested on: A549
assay info: Euclidean distance of Cell Painting phenotypic profile (signed KS, 77 features) to DMSO centroid (dimensionless distance); 5 or 10 uM (library dependent); higher = stronger phenotypic change vs DMSO (phenoactivity)
test settings: 48 h
Structures can show the parent of a compound that is named as a salt.
Returns YES if the recorded Euclidean distance is greater than or equal to 0.8, and NO otherwise.

1. CCc1cncnc1N1CCN(Cc2nc3ccc(C(F)(F)F)cc3[nH]2)CC1
NO
2. C=CCc1cccc(/C=N/NC(=O)CN2CCN(Cc3ccccc3)CC2)c1O
YES
3. Nc1nc(OCc2cc(Br)cs2)c2[nH]cnc2n1
YES
4. Cc1c(-c2cnccn2)ssc1=S
YES
5. CCOC(=O)C1=C[C@@H](OC(CC)CC)[C@H](NC(C)=O)[C@@H](N)C1 [Oseltamivir phosphate]
NO
6. C[C@@H]1CCO[C@H]2Cn3cc(C(=O)NCc4ccc(F)cc4F)c(=O)c(O)c3C(=O)N12 [Dolutegravir Sodium]
NO
7. OCC1OC(OC2OC(CO)C(O)C(O)C2O)C(O)C(O)C1O [D-(+)-Trehalose Anhydrous]
YES
8. CC(C)(C)NCC(O)c1ccc(O)c(CO)c1 (stereo not given) [Salbutamol Sulfate]
YES
9. C/C=C\c1ccc(O)c(OC)c1
NO
10. CC(C)OC(=O)OCOP(=O)(CO[C@H](C)Cn1cnc2c(N)ncnc21)OCOC(=O)OC(C)C [Tenofovir Disoproxil Fumarate]
YES
11. CC(=O)OCC1=C(C(=O)O)N2C(=O)[C@@H](NC(=O)CSC(=NC(C)C)NC(C)C)[C@H]2SC1
NO
12. CN1[C@@H](CC(=O)c2ccccc2)CCC[C@H]1C[C@H](O)c1ccccc1 [Lobeline hydrochloride]
NO
13. COCC1=C(C(=O)OC(C)OC(=O)OC(C)C)N2C(=O)[C@@H](NC(=O)/C(=N\OC)c3csc(N)n3)[C@H]2SC1 (stereo not given in full)
NO
14. CCc1c(Cl)c(O)c(Cl)c(O)c1C(=O)O[C@H]1[C@H](O)[C@H](OC)[C@H](OC/C2=C\C=C\C[C@H](O)/C(C)=C/[C@H](CC)[C@@H](O[C@@H]3OC(C)(C)[C@@H](OC(=O)C(C)C)[C@H](O)[C@@H]3O)/C(C)=C/C(C)=C/C[C@@H]([C@@H](C)O)OC2=O)O[C@@H]1C
YES
